Sourced from ChEMBL document CHEMBL3580534

test system: Escherichia coli; assay: Antimicrobial activity against Escherichia coli ATCC 35218 assessed as complete prevention of visible growth after incubation at 37 degC for 18 to 20 hrs; assay type: functional
readout.type: MIC

Check out these entries, answers already filled in.
1) COc1cc(O)c2c(c1)CCc1cc(O)c(-c3c(O)cc(OC)c4c3ccc3cc(OC)ccc34)cc1-2
> 128 µg/mL
2) COc1cc(O)c(-c2c(O)cc(OC)c3c2ccc2cc(O)ccc23)c2ccc3cc(O)ccc3c12 [CIRRHOPETALANTHIN]
> 128 µg/mL
3) COc1c(O)ccc2c1ccc1c(-c3c(O)cc(OC)c4c3ccc3c(OC)c(O)ccc34)c(O)cc(OC)c12
> 128 µg/mL
4) CC1(C)S[C@@H]2[C@H](NC(=O)[C@H](N)c3ccccc3)C(=O)N2[C@H]1C(=O)O [AMPICILLIN]
> 8 µg/mL

// MIC value for COc1ccc2c(ccc3c(-c4c(O)cc(OC)c5c4CCc4cc(O)ccc4-5)c(O)cc(OC)c32)c1 : > 128 µg/mL

// MIC value for COc1ccc2c(ccc3c(-c4cc5c(cc4OC)-c4c(cc(O)cc4OC)CC5)c(O)cc(OC)c32)c1 : > 128 µg/mL

====

test system: Staphylococcus aureus; assay: Antimicrobial activity against ampicillin-resistant Staphylococcus aureus ATCC 29213 assessed as complete prevention of visible growth after incubation at 37 degC for 18 to 20 hrs; assay type: functional
readout.type: MIC (µg/mL)
Kindly answer with a numeric value in µg/mL, unit omitted.

Check out these entries, answers already filled in.
1) COc1cc(O)c(-c2c(O)cc(OC)c3c2ccc2cc(O)ccc23)c2ccc3cc(O)ccc3c12 [CIRRHOPETALANTHIN]
16
2) CC1(C)S[C@@H]2[C@H](NC(=O)[C@H](N)c3ccccc3)C(=O)N2[C@H]1C(=O)O [AMPICILLIN]
8
3) COc1c(O)ccc2c1ccc1c(-c3c(O)cc(OC)c4c3ccc3c(OC)c(O)ccc34)c(O)cc(OC)c12
8
4) COc1ccc2c(ccc3c(-c4c(O)cc(OC)c5c4CCc4cc(O)ccc4-5)c(O)cc(OC)c32)c1
2

Attention now shifts to the item below.
// MIC value for COc1cc(O)c2c(c1)CCc1cc(O)c(-c3c(O)cc(OC)c4c3ccc3cc(OC)ccc34)cc1-2 : 8

====

system: Staphylococcus aureus; assay: Antimicrobial activity against methicillin-resistant Staphylococcus aureus ATCC 43300 assessed as complete prevention of visible growth after incubation at 37 degC for 18 to 20 hrs; type: functional
Reported MIC values for the following compounds.
Kindly answer with a numeric value in µg/mL, unit omitted.

Check out these entries, answers already filled in.
1) COc1cc(O)c2c(c1)CCc1cc(O)c(-c3c(O)cc(OC)c4c3ccc3cc(OC)ccc34)cc1-2
8
2) COc1cc(O)c(-c2c(O)cc(OC)c3c2ccc2cc(O)ccc23)c2ccc3cc(O)ccc3c12 [CIRRHOPETALANTHIN]
16
3) COc1c(O)ccc2c1ccc1c(-c3c(O)cc(OC)c4c3ccc3c(OC)c(O)ccc34)c(O)cc(OC)c12
16

Attention now shifts to the item below.
// MIC value for COc1ccc2c(ccc3c(-c4c(O)cc(OC)c5c4CCc4cc(O)ccc4-5)c(O)cc(OC)c32)c1 : 4
